System: 786-0 renal
Experiment: NCI tumour cell line growth inhibition, 48 h
Catalogue of TGI values
assay.endpoint: TGI

compound | assay.endpoint | result
C=C(C)[C@H]1C=C[C@@H](OC(C)=O)[C@@]2(COC(C)=O)[C@H](OC(=O)CCC)[C@H]3[C@@H](OC(C)=O)[C@@H](C)C[C@]3(O)C(=O)[C@@](C)(OC(C)=O)[C@H]12 | TGI | > 100 µM
CCOC(=O)C(/C=N/C(N)=S)=C(/O)c1ccccc1 | TGI | > 100 µM
CCN(CC)C(=O)CCNC(C)Cc1c[nH]c2ccccc12 (centres undefined) | TGI | > 100 µM
C=CCOc1ccc2c(c1)CC[C@@H]1[C@@H]2CC[C@]2(C)C(=O)/C(=N/O)C[C@@H]12 | TGI | 25.4 µM

###

Tested on: M14 melanoma
Experiment: NCI tumour cell line growth inhibition, 48 h

smiles.str | tested.system | TGI
O=C(Nc1ccccn1)c1cc2c(cc1Cl)Sc1nccn1S2(=O)=O | M14 melanoma | > 100 µM
COc1cc(CNC(=O)CCCCCCCCCCSC#N)ccc1O | M14 melanoma | 21.5 µM
CCOC(=O)C(/C=N/C(N)=S)=C(/O)c1ccccc1 | M14 melanoma | > 100 µM

###

Test system: NCI/ADR-RES ovarian
Assay: NCI tumour cell line growth inhibition, 48 h

compound | relation.symbol | TGI, µM
O=c1c(Br)ccc(Br)cc1Br | = | 7.16
O=C1CSC2(CC(/C=C/c3ccccc3[N+](=O)[O-])=NN2c2cccc(S(=O)(=O)O)c2)N1c1nc2ccccc2s1 (stereo not given) | = | 50.7
C=CCOc1ccc2c(c1)CC[C@@H]1[C@@H]2CC[C@]2(C)C(=O)/C(=N/O)C[C@@H]12 | > | 52
O=C(CCCN1CCC(Nc2ccc(F)cc2)(c2nnnn2C2CCCCC2)CC1)c1ccc(F)cc1 | = | 46.9
Nc1[nH]nc2c1Cc1c(n(Cc3ccc(Cl)cc3)c3ccccc13)C(=O)N2 | = | 44.6

###

Test system: T-47D breast
Assay: NCI tumour cell line growth inhibition, 48 h
Catalogue of TGI values
assay.endpoint: TGI

compound | assay.endpoint | result
O=[N+]([O-])C(=C(\Cl)NCCO)/C(Cl)=C(/Cl)Br | TGI | 3.84 µM
O=c1[nH]nc(-c2ccccc2)c2[nH]c3c(c12)CCCc1ccccc1-3 | TGI | 57.5 µM
CN(Cc1cccc(Cl)c1)c1ccc(CO)c(Cl)c1 | TGI | 5.17 µM
O=[N+]([O-])c1ccc(N/N=C\c2ccc(O)cc2O)nc1 | TGI | > 100 µM
O=c1c(-c2nc3ccccc3[nH]2)cc2ccccc2n1Cc1cn(Cc2ccc(F)cc2)nn1 | TGI | > 100 µM
O=Cc1ccc(Oc2c3ccccc3nc3ccccc23)cc1 | TGI | 12.5 µM
O=C1N(c2ccccc2)N=C2c3ccncc3C3=NN(c4ccccc4)C(=O)C123 (stereo unspecified) | TGI | > 100 µM
COc1ccc(-c2cc(-c3ccncc3)nc(N)c2-c2ccc(F)cc2)cc1 | TGI | > 100 µM
CC(=O)SC(C[N+](=O)[O-])c1ccccc1 (stereo unspecified) | TGI | > 71.3 µM
CC(C)N=C(NC#N)NS(=O)(=O)c1cnccc1NC1CCCCCCC1 | TGI | > 100 µM
CC(NC(=O)C1(N)CCCC1)C(=O)O (stereo unspecified) | TGI | > 100 µM
